Test system: SF-268 CNS
assay protocol: NCI-60 one-dose screen, 48 h (100 = growth as untreated, 0 = no growth, -100 = all killed)
measurement setup: 10 µM unless noted
This is part of a sample that, as a whole, favours compounds with a hit. Of some 83,000 tested, about 20% had one in any assay.
Readings of growth for the listed molecules
Express the result in % but write the number alone.

Consider the following illustrative entries.
- molecule: "O=C(Cc1ccccc1)NC(O)C(Cl)(Cl)Cl (centres undefined)"
  scale unit: "%"
  observed measurement: 104
- molecule: "COC(=O)C12C3C4C1C1C2C3C41NC(=O)c1csc([C@@H](C[C@H](C(C)C)N(C)C(=O)[C@@H](NC(=O)[C@H]2CCCCN2C)C2CC2)OC(C)=O)n1 (some centres undefined)"
  scale unit: "%"
  observed measurement: 25.6
- molecule: "COC(=O)CCP(CCC(=O)OC)c1ccccc1"
  scale unit: "%"
  observed measurement: 103

Ask: # get_value(readout='growth', item= COc1ccc2c(c1)C1(C)CCN(C)CC(C1)C2O (centres undefined) )
Reply: 100

Ask: Also check Cc1cc(N(CCCl)CCCl)ccc1C=Nc1ccc(-c2csc(-c3ccccc3)n2)cc1
Reply: 66.7

Ask: Same read-out for Nc1ccc2c(c1)Cc1cc(N)ccc1-2 ?
Reply: 95.4

Ask: Moving on to CN1[C@@H](CC(=O)c2ccccc2)CCC[C@H]1CC(=O)c1ccccc1
Reply: 102

Ask: Next up: O=C(CBr)OCCOC(=O)CBr
Reply: 89.9

Ask: Now consider CC1=CC(=O)CCC12CCOC2=O (centres undefined) .
Reply: 103

---

Items are presented alongside their recorded growth.
System: PC-3 prostate
assay protocol: NCI-60 one-dose screen, 48 h (100 = growth as untreated, 0 = no growth, -100 = all killed)
measurement setup: 10 µM unless noted
The panel holds about 83,000 compounds, 20% with a hit somewhere; the sample as a whole holds those more often.
# output: bare number, implied unit %

Observe how each entry below is paired with its result.
- compound: "CCC1(CCSC#N)C(=O)NC(=O)NC1=O"
  observed measurement: 92.5
- compound: "CN(C)c1ccc(C=C2C(=O)NC(=O)NC2=O)cc1"
  observed measurement: 105
- compound: "O=C/C=C/c1ccco1"
  observed measurement: 83.7
- compound: "C/C(=N/OC(=O)N(C)C)c1ccc(Cl)c(Cl)c1"
  observed measurement: 93.7
- compound: "COc1ccc(C(C#N)C(C)=O)cc1 (stereo unspecified)"
  observed measurement: 103

// moving on: another record for growth
Ask: Returns the measured growth for the input compound. Input: CC(C)CCC1C(=O)NC(=O)NC1=O
Reply: 98

---

System: NCI-H322M lung
assay protocol: NCI-60 one-dose screen, 48 h (100 = growth as untreated, 0 = no growth, -100 = all killed)
measurement setup: 10 µM unless noted
Compounds without any hit were thinned out: in the full panel of roughly 83,000, 20% have a hit.
growth vs 80%: less than gives Y; not less than gives N.

- compound: "CSc1cc(/C=C(\\C)[C@@H]2C[C@@H]3O[C@]3(C)CCC[C@H](C)[C@H](O)[C@@H](C)C(=O)C(C)(C)[C@@H](O)CC(=O)O2)n(CCNC(=O)OC(C)(C)C)n1"
  target: "NCI-H322M lung"
  assigned class: "Y"
- compound: "COC12CC3(C)C(C4=CC(=O)OC4)CCC3(O)C3CCC4=CC(=O)CCC4(CO1)C32 (stereo not given)"
  target: "NCI-H322M lung"
  assigned class: "N"
- compound: "CNC(=O)CCl"
  target: "NCI-H322M lung"
  assigned class: "N"
- compound: "O=CC1(c2ccccc2)CCN(Cc2ccccc2)CC1"
  target: "NCI-H322M lung"
  assigned class: "N"
- compound: "O=C/C=C/c1ccco1"
  target: "NCI-H322M lung"
  assigned class: "N"

Ask: In plain terms, does COc1ccc(N(CC(=O)NCCC[Te]c2ccccc2)C(=O)c2ccccc2)cc1 come in under 80% for growth?
Reply: Y

Ask: Moving on to CCC(=O)C(CC(C)N1CCCCCC1)(c1ccccc1)c1ccccc1 (stereo not given)
Reply: N

Ask: # iterate: CC[C@H](C)[C@H](NC(=O)CN(C)C)C(=O)N(C)[C@H](C[C@@H](OC(C)=O)c1nc(C(=O)NC23C4C5C2C2C3C4C52C(=O)OC)cs1)C(C)C (stereo not given in full)
Reply: Y

Ask: Repeat with C=CC1CN2CCC1CC2C(O)c1ccnc2ccccc12 (stereo not given)
Reply: N

Ask: Proceed to CCC1(CCSC#N)C(=O)NC(=O)NC1=O
Reply: N

Ask: Try this compound too: NC1CN2CCC1CC2 (stereo not given)
Reply: N

Ask: Cool, now Oc1cc(Cl)ccc1Oc1ccc(Cl)cc1Cl
Reply: N

Ask: Ok, now C=CC[PH+](c1ccccc1)c1ccccc1.C=CC[PH+](c1ccccc1)c1ccccc1.[Pt+2].[S-]c1ncccn1.[S-]c1ncccn1
Reply: N

Ask: // repeat for O=P(O)(Nc1ccccc1)Nc1ccccc1 and report
Reply: N
